# MEASUREMENT NOTES: Cytotoxicity against human U937 cells assessed as decrease in cell number after 24 hrs by MTT assay
# Format: functional, cell-based
# DETAILS: U-937, 24 h
ENDPOINT: IC50 (µg/mL)

compound=C=C(C/C=C/C(C)(C)O)[C@@H]1C[C@@H](O)[C@@]2(C)[C@@H]1[C@@H]1[C@H](C)CC[C@@H]12 endpoint=IC50 units_label=µg/mL measurement=42.3
compound=C=C(C(=O)/C=C/C(C)=O)[C@@H]1CC(=O)[C@@]2(C)[C@@H]1[C@@H]1[C@H](C)CC[C@@H]12 endpoint=IC50 units_label=µg/mL measurement=7.52
compound="C=C(C/C=C/C(C)(C)O)[C@@H]1C[C@@H](OC(C)=O)[C@@]2(C)[C@@H]1[C@@H]1[C@H](C)CC[C@@H]12 (mixture of isomers)" endpoint=IC50 units_label=µg/mL measurement=48.5
compound="C=C(C(/C=C/C(C)(O)COC(C)=O)OC(C)=O)[C@@H]1C[C@@H](OC(C)=O)[C@@]2(C)[C@@H]1[C@@H]1[C@H](C)CC[C@@H]12 (some centres not stated)" endpoint=IC50 units_label=µg/mL measurement=38.4
compound=C=C(CC(=O)C=C(C)C)[C@@H]1CC(=O)[C@@]2(C)[C@@H]1[C@@H]1[C@H](C)CC[C@@H]12 endpoint=IC50 units_label=µg/mL measurement=47.5
compound="COc1cc([C@@H]2c3cc4c(cc3[C@@H](O[C@@H]3O[C@@H]5CO[C@@H](C)O[C@H]5[C@H](O)[C@H]3O)[C@H]3COC(=O)[C@H]23)OCO4)cc(OC)c1O [ETOPOSIDE]" endpoint=IC50 units_label=µg/mL measurement=2.27
compound="C=C(CC(C=C(C)C)OC(C)=O)[C@@H]1C[C@@H](O)[C@@]2(C)[C@@H]1[C@@H]1[C@H](C)CC[C@@H]12 (some centres not stated)" endpoint=IC50 units_label=µg/mL measurement=60
compound="C=C(C(O)/C=C/C(C)(O)COC(C)=O)[C@@H]1C[C@@H](OC(C)=O)[C@@]2(C)[C@@H]1[C@@H]1[C@H](C)CC[C@@H]12 (mixture of isomers)" endpoint=IC50 units_label=µg/mL measurement=5.6
compound="C=C(C)C(O)CCC(=C)[C@@H]1C[C@@H](OC(C)=O)[C@@]2(C)[C@@H]1[C@@H]1[C@H](C)CC[C@@H]12 (mixture of isomers)" endpoint=IC50 units_label=µg/mL measurement=35.1
compound="C=C(C(O)/C=C/C(C)(O)COC(C)=O)[C@@H]1C[C@@H](O)[C@@]2(C)[C@@H]1[C@@H]1[C@H](C)CC[C@@H]12 (mixture of isomers)" endpoint=IC50 units_label=µg/mL measurement=144
compound="C=C(CC(C=C(C)C)OC(C)=O)[C@@H]1C[C@@H](OC(C)=O)[C@@]2(C)[C@@H]1[C@@H]1[C@H](C)CC[C@@H]12 (mixture of isomers)" endpoint=IC50 units_label=µg/mL measurement=40.1
compound="C=C(C(O)/C=C/C(C)(O)COC(C)=O)[C@@H]1CC(=O)[C@@]2(C)[C@@H]1[C@@H]1[C@H](C)CC[C@@H]12 (mixture of isomers)" endpoint=IC50 units_label=µg/mL measurement=43.6

# credit: ChEMBL document CHEMBL3425446
